# Measurement target: UniProtKB Q9UQL6
# Sequence (Q9UQL6 whole entry): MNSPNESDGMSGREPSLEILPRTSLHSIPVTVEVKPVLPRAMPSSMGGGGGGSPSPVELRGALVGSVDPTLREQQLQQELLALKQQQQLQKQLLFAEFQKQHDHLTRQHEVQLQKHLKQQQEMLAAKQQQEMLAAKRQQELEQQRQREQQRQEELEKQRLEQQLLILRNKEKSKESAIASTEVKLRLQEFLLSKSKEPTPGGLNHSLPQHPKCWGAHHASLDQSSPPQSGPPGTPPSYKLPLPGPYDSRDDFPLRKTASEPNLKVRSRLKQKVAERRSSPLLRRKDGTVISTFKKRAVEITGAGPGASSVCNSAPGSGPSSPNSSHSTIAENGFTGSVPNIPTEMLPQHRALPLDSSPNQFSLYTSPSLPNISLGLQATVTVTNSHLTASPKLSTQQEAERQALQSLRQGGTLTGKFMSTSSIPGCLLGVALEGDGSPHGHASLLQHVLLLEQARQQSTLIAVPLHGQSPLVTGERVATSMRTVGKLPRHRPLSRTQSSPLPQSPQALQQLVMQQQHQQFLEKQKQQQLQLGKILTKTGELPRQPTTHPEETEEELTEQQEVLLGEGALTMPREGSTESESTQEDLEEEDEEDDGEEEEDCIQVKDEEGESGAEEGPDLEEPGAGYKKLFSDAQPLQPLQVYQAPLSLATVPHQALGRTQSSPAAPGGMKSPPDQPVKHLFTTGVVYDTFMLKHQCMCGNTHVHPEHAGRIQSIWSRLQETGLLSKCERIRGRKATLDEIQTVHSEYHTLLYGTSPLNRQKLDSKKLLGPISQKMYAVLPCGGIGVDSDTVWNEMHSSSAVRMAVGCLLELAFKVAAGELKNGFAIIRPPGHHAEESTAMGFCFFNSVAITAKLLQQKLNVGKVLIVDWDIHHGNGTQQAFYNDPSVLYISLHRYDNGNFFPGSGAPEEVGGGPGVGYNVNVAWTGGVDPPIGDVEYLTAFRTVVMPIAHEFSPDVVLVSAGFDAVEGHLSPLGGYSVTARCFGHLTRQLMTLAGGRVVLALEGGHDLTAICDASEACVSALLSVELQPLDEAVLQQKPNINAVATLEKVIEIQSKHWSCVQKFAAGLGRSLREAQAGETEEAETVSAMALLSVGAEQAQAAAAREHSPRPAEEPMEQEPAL
# Applied conditions: 100 ug/ml
Outcome measure: HDAC 5 activity, % of water-treated controls (%)
Give the value in % but do not write % after it.

Here are 3 compounds together with their reported answers.
Compound	Scale unit	Measurement
CCCC(=O)NCCCCC(NC(=O)CCC)C(=O)[O-].CCCC(=O)NCCCCC(NC(=O)CCC)C(=O)[O-].[Ca+2] (stereo not shown) [Ca di-(di-n-butyryl lysinate), calcium di-(di-n-butyryl lysinate)]	%	117
CCCC(=O)N[C@@H](CC(C)C)C(=O)[O-].CCCC(=O)N[C@@H](CC(C)C)C(=O)[O-].[Zn+2] [Zn di-(n-butyryl leucinate), Zinc di-(n-butyryl leucinate)]	%	50
CCCC(=O)[O-].[Na+] [Sodium butyrate, reference compound]	%	26

Record CCCC(=O)NCCCC[C@H](NC(=O)CCC)C(=O)[O-].CCCC(=O)NCCCC[C@H](NC(=O)CCC)C(=O)[O-].[Zn+2] [Zn di-(di-n-butyryl lysinate), Zinc di-(di-n-butyryl lysinate)] ; system UniProtKB Q9UQL6; HDAC 5 activity, % of water-treated controls = 33

Where these numbers come from: patent US20260041620A1
